Method: Plasma clearance in C57BL6 mouse at 3 mg/kg, iv or 5 mg/kg, po
Assay type: ADME, organism-based
Quantity name: clearance

Query smiles | Observed measurement
C[C@@H]1CN(c2nc(C(F)(F)F)no2)CCN1c1ncc(OCc2ccc(CS(C)(=O)=O)cc2F)cn1 | 9.8 mL/min/kg

====

Method: Volume of distribution at steady state in Han Wistar rat at 2 mg/kg, iv or 5 mg/kg, po
Assay type: ADME, organism-based
Study conditions: in vivo, read-out: Vdss
Quantity name: Vd (L/kg)

Query smiles | Quantity name | Observed measurement
C[C@@H]1CN(c2nc(C(F)(F)F)no2)CCN1c1ncc(OCc2ccc(CS(C)(=O)=O)cc2F)cn1 | Vd | 5.2

====

Method: AUC (0 to 24 hrs) in Han Wistar rat at 100 mg/kg, po
Format: ADME, organism-based
Parameters: time < 24 hr, dose 100 mg/kg, route oral
Study conditions: plasma
Quantity name: AUC(0-t) at 24 h (µM·h)

Query smiles | Quantity name | Unit descriptor | Observed measurement
C[C@@H]1CN(c2nc(C(F)(F)F)no2)CCN1c1ncc(OCc2ccc(CS(C)(=O)=O)cc2F)cn1 | AUC(0-t) at 24 h | µM·h | 123

====

Method: AUC (0 to 24 hrs) in Han Wistar rat at 12 mg/kg, po
Format: ADME, organism-based
Set-up: time < 24 hr, dose 12 mg/kg, route oral
Study conditions: plasma

Query smiles | Unit descriptor | AUC(0-t) at 24 h
C[C@@H]1CN(c2nc(C(F)(F)F)no2)CCN1c1ncc(OCc2ccc(CS(C)(=O)=O)cc2F)cn1 | µM·h | 33

====

Method: Intrinsic clearance in mouse hepatocytes assessed per million cells
Type: ADME, cell-based, Hepatocyte
Study conditions: read-out: CLH

Query smiles | Unit descriptor | hepatocyte CLint
C[C@@H]1CN(c2nc(C(F)(F)F)no2)CCN1c1ncc(OCc2ccc(CS(C)(=O)=O)cc2F)cn1 | µL/min/1e6 cells | 7

====

Method: Oral bioavailability in C57BL6 mouse at 5 mg/kg
Format: ADME, organism-based
Study conditions: in vivo

Query smiles | Unit descriptor | bioavailability
C[C@@H]1CN(c2nc(C(F)(F)F)no2)CCN1c1ncc(OCc2ccc(CS(C)(=O)=O)cc2F)cn1 | % | 76

====

Method: Cmax in Han Wistar rat at 100 mg/kg, po
Assay type: ADME, organism-based
Design: dose 100 mg/kg, route oral
Study conditions: in vivo

Query smiles | Unit descriptor | Cmax
C[C@@H]1CN(c2nc(C(F)(F)F)no2)CCN1c1ncc(OCc2ccc(CS(C)(=O)=O)cc2F)cn1 | µM | 8

====

Method: Half life in C57BL6 mouse at 3 mg/kg, iv
Type: ADME, organism-based
Design: dose 3 mg/kg, route intravenous
Study conditions: in vivo

Query smiles | half-life, h
C[C@@H]1CN(c2nc(C(F)(F)F)no2)CCN1c1ncc(OCc2ccc(CS(C)(=O)=O)cc2F)cn1 | 6.3

====

Method: AUC (0 to 24 hrs) in Han Wistar rat at 19 mg/kg, po
Assay type: ADME, organism-based
Set-up: time < 24 hr, dose 19 mg/kg, route oral
Study conditions: plasma
Quantity name: AUC(0-t) at 24 h (µM·h)

Query smiles | Quantity name | Observed measurement
C[C@@H]1CN(c2nc(C(F)(F)F)no2)CCN1c1ncc(OCc2ccc(CS(C)(=O)=O)cc2F)cn1 | AUC(0-t) at 24 h | 106

====

Method: Plasma clearance in beagle dog at 2 mg/kg, iv or 3.4 mg/kg, po
Type: ADME, organism-based, Canis lupus familiaris

Query smiles | clearance (mL/min/kg)
C[C@@H]1CN(c2nc(C(F)(F)F)no2)CCN1c1ncc(OCc2ccc(CS(C)(=O)=O)cc2F)cn1 | 1.6

====

Method: Cmax in C57BL6 mouse at 31 mg/kg, po
Assay type: ADME, organism-based
Design: dose 31 mg/kg, route oral
Study conditions: in vivo
Quantity name: Cmax

Query smiles | Quantity name | Observed measurement
C[C@@H]1CN(c2nc(C(F)(F)F)no2)CCN1c1ncc(OCc2ccc(CS(C)(=O)=O)cc2F)cn1 | Cmax | 11.8 µM

====

Method: AUC (0 to 24 hrs) in beagle dog at 5 mg/kg, po
Type: ADME, organism-based, Canis lupus familiaris
Set-up: time < 24 hr, dose 5 mg/kg, route oral
Study conditions: plasma

Query smiles | Unit descriptor | AUC(0-t) at 24 h
C[C@@H]1CN(c2nc(C(F)(F)F)no2)CCN1c1ncc(OCc2ccc(CS(C)(=O)=O)cc2F)cn1 | µM·h | 20

====

Method: Oral bioavailability in beagle dog at 3.4 mg/kg
Assay type: ADME, organism-based, Canis lupus familiaris
Study conditions: in vivo

Query smiles | Unit descriptor | bioavailability
C[C@@H]1CN(c2nc(C(F)(F)F)no2)CCN1c1ncc(OCc2ccc(CS(C)(=O)=O)cc2F)cn1 | % | 98

====

Method: AUC (0 to 24 hrs) in C57BL6 mouse at 11 mg/kg, po
Type: ADME, organism-based
Parameters: time < 24 hr, dose 11 mg/kg, route oral
Study conditions: plasma

Query smiles | AUC(0-t) at 24 h (µM·h)
C[C@@H]1CN(c2nc(C(F)(F)F)no2)CCN1c1ncc(OCc2ccc(CS(C)(=O)=O)cc2F)cn1 | 35

====

Method: AUC (0 to 24 hrs) in Han Wistar rat at 154 mg/kg, po
Format: ADME, organism-based
Set-up: time < 24 hr, dose 154 mg/kg, route oral
Study conditions: plasma

Query smiles | AUC(0-t) at 24 h [µM·h]
C[C@@H]1CN(c2nc(C(F)(F)F)no2)CCN1c1ncc(OCc2ccc(CS(C)(=O)=O)cc2F)cn1 | 247

====

Method: Plasma clearance in Han Wistar rat at 2 mg/kg, iv or 5 mg/kg, po
Type: ADME, organism-based

Query smiles | clearance (mL/min/kg)
C[C@@H]1CN(c2nc(C(F)(F)F)no2)CCN1c1ncc(OCc2ccc(CS(C)(=O)=O)cc2F)cn1 | 11

====

Method: AUC (0 to 24 hrs) in beagle dog at 98 mg/kg, po
Format: ADME, organism-based, Canis lupus familiaris
Parameters: time < 24 hr, dose 98 mg/kg, route oral
Study conditions: plasma

Query smiles | Unit descriptor | AUC(0-t) at 24 h
C[C@@H]1CN(c2nc(C(F)(F)F)no2)CCN1c1ncc(OCc2ccc(CS(C)(=O)=O)cc2F)cn1 | µM·h | 78

====

Method: Intrinsic clearance in rat hepatocytes assessed per million cells
Format: ADME, cell-based, Hepatocyte
Study conditions: read-out: CLH
Consider the following compounds and their measured hepatocyte CLint readings.

Compound | hepatocyte CLint (µL/min/1e6 cells)
C[C@@H]1CN(c2nnc(C(F)(F)F)o2)CCN1c1ncc(OCc2ccc(CS(C)(=O)=O)cc2F)cn1 | 9
C[C@@H]1CN(c2nnc(C(F)(F)F)o2)CCN1c1ncc(OCc2ccc(C[S+](C)[O-])cc2F)cn1 (some centres not stated) | 53

====

Method: Half life in beagle dog at 3.4 mg/kg, po
Type: ADME, organism-based, Canis lupus familiaris
Design: dose 3.4 mg/kg, route oral
Study conditions: in vivo

Query smiles | half-life (h)
C[C@@H]1CN(c2nc(C(F)(F)F)no2)CCN1c1ncc(OCc2ccc(CS(C)(=O)=O)cc2F)cn1 | 30
